Each recorded value in this set is attributed to patent US20230263822A1.

Tested on: fibrinogen
experimental.details: Fibrinogen assay (Example 45)
Format: in vivo, cynomolgus monkeys
condition.details: plasma; day −14; escalating dose regimen
Recorded measurements of fibrinogen levels, one per entry
# value in mg/dL; strip the unit string

- ISIS 416864: MOE gapmer, nucleobases 1275 to 1318 of SEQ ID NO: 1 (Table 8) (antisense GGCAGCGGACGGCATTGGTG; MOE gapmer, wing and gap sizes not given here): 300

Q: Look up fibrinogen levels for this substance: ISIS 416858: MOE gapmer, nucleobases 1275 to 1318 of SEQ ID NO: 1 (Table 8) (antisense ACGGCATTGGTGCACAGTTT; MOE gapmer, wing and gap sizes not given here)
A: 277

Q: Further, for ISIS 416838: MOE gapmer, nucleobases 1018 to 1042 of SEQ ID NO: 1 (Table 6) (antisense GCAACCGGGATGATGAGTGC; MOE gapmer, wing and gap sizes not given here) ?
A: 251

Q: Follow-up entry: ISIS 417002: MOE gapmer, nucleobases 1275 to 1318 of SEQ ID NO: 1 (Table 8) (antisense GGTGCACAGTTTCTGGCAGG; MOE gapmer, wing and gap sizes not given here)
A: 291

Q: Now give it for ISIS 416850: MOE gapmer, nucleobases 1275 to 1318 of SEQ ID NO: 1 (Table 8) (antisense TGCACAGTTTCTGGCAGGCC; MOE gapmer, wing and gap sizes not given here) too.
A: 310
